Known binding signal of a selection of binders
# target-under-test: MSI1 full-length (mouse, UniProt Q61474 1-362)
# Sequence (Q61474 whole entry): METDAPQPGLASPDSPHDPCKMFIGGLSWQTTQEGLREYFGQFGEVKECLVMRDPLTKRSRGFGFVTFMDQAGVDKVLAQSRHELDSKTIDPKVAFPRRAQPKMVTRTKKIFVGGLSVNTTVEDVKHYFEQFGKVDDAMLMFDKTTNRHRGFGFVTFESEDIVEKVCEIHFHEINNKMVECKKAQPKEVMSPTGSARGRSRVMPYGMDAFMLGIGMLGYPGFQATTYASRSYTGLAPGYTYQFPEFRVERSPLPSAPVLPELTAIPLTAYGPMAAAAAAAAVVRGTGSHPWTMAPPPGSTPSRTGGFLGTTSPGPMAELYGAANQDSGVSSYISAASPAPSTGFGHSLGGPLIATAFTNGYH
# assay-notes: nsRBNS (natural sequence RNA bind-n-seq); RBNS binding buffer (assumed for nsRBNS): 25 mM Tris pH 7.5, 150 mM KCl, 3 mM MgCl2, 0.01% Triton X-100, 500 ug/ml BSA, 20 U/ml SUPERase-In, 4 C; UNK is unkempt and MSI1 is Musashi-1; names of the RNAs are library labels; protein concentration not given here; high values mean tight binding
Over roughly 5,800 sequences, “enrichment r” has its median near 0.54; the highest 2% begin near 16. This excerpt belongs to a sample that is enriched for the highest values.
measurement-kind: binding signal (enrichment R)

1) chr12:104760787:104760888:+|3pUTR|ENSG00000171310|unk|FALSE|unique (ssRNA) RNA: GGGAGUUCUACAGUCCGACGAUCUUCUUUUCUAAUGGCAUUGAAACUUUAAAAAAAAUGGAUUCAACUGUUUUUGCAGAAUGUAGAAAGUAUUCUGUGUCCUUGGUUAAAGAAAUCCACUUGUGAAGUGUGCCUGGAAAAUGACAACAGAGGAUUGAGCAUCA = 0.433
2) chr8:100287602:100287712:-|CDS|ENSG00000034677|unk|total|mutant (ssRNA) RNA: GGGAGUUCUACAGUCCGACGAUCUGUGUGGAUUGCUUACGACAAUAUUUAAGGACCGAAAUCUCUGAAAGCAGAGUUAAUAUCCGUUGCCCAGAAUGUACUGAACGGUUUAAUCCCCAUGAUAUUCGCUUGAUAUUAAGUGAUCAACAGAGGAUUGAGCAUCA = 0.307
3) chr12:98549999:98550103:+|3pUTR|ENSG00000120802|unk|FALSE|unique (ssRNA) RNA: GGGAGUUCUACAGUCCGACGAUCUGUUUCCCAUACUGUUUUCAGCCUUUUGUUUAUAAUUAGAAAUUGUGAGAAGCUUCAUUUAGUGUUUAAAAAUGUGGGGAGAUAAAUCAGACUUAACAUGUAUGUAAGAUCAAUUCACUUCAACAGAGGAUUGAGCAUCA = 27.3

Recorded values, source paper PMC12136788.
